Experiment: in vitro
Set-up: Viability of infected HeLa host cells, resazurin conversion, bulk resorufin fluorescence relative to DMSO
Details: human, hela cells; bulk resorufin, mean of 2
readout-type: viability at 28.5 h, 10 µM (%)

INSERT INTO assay_data (compound, readout_number) VALUES
  ('COc1cc(NS(=O)(=O)c2ccc(Nc3nc(-c4sc(N)nc4C)cs3)cc2)nc(OC)n1', 88),
  ('O=C1C(NCCO)=C(Nc2cccc(Cl)c2)C(=O)c2ccccc21', 88.4),
  ('O=C(Nc1ncc(-c2ccccc2)s1)c1cccc([N+](=O)[O-])c1', 114),
  ('CCCCc1ccc(NC(=N)Nc2nc(C)cc(C)n2)cc1', 90),
  ('CC(=O)NC[C@H]1CN(c2ccc(-c3nnc([C@@H](C)N)s3)c(F)c2)C(=O)O1', 89.3),
  ('COc1ccc2cc3c(nc2c1)OC(=O)N(CC1CC1)C3', 110),
  ('Cc1cc(Br)ccc1S(=O)(=O)N(C)c1ccc(N2CCNCC2)c2ccccc12 [CBK016170C]', 112),
  ('O=C(NCCc1c[nH]c2ccc(Cl)cc12)c1c(F)ccc(Cl)c1F', 94.6),
  ('CCc1nnc(NS(=O)(=O)c2ccc(NC(=S)NC(=O)c3ccco3)cc2)s1', 115);

---

Experiment: in vitro
Settings: human, hela cells, % viability
readout-type: viability at 28.5 h, 10 µM

INSERT INTO assay_data (compound, result) VALUES
  ('Nc1ccc(-c2cncc(NCc3ccccc3)n2)cc1 [CBK065578]', '109%'),
  ('CC(C)COc1ccc(-c2nonc2NC(=O)c2ccco2)cc1 [CBK299802]', '99.1%'),
  ('Cc1ccc(S(=O)(=O)Nc2nc3ccccc3nc2Nc2ccc(C(=O)O)cc2)cc1C [CBK300516]', '91.5%'),
  ('c1ccc(Oc2cccc(CN3CCN(c4ccccn4)CC3)c2)cc1 [CBK261523]', '102%'),
  ('COc1ccc(CC(=O)N2CCNC(=O)C2Cc2ccccc2-c2ccccc2)cc1OC (stereo not drawn) [CBK285827]', '102%'),
  ('Cc1ccc(S(=O)(=O)CC(CN2CCOCC2)N2CCOCC2)cc1 (stereo not drawn) [CBK264590]', '99.1%'),
  ('COc1ccccc1-c1nccnc1OCCn1cnc2c1c(=O)n(C)c(=O)n2C [CBK106816]', '109%'),
  ('CCc1nc(CN(C)C2CCN(CC(=O)NCc3ccco3)C2)no1 (stereo not drawn) [CBK305328]', '111%'),
  ('O=C(O)C1Cc2nc[nH]c2C(c2ccc(F)cc2)N1 (stereo not drawn) [CBK286970]', '86.1%');

---

Assay: in vitro
Settings: human, hela cells, % viability
readout-type: viability at 28.5 h, 10 µM (%)

INSERT INTO measurements (molecule, readout_number) VALUES
  ('CC(=O)NC1CCN(CC2(c3ccc(F)cc3)CCCC2)CC1', 89),
  ('O=C1NC2=C(C(=O)N(CC3CCCO3)C2)C(c2ccccc2)N1 (centres unmarked)', 100),
  ('COc1ccccc1CN(CC(C)(C)CN)C(=O)NCc1ccc(F)cc1 [CBK002470C]', 87),
  ('CC(=O)c1cccc(NC(=O)CN(c2cc(Cl)ccc2Cl)S(=O)(=O)c2ccc(C)cc2)c1', 90.6),
  ('COc1ccccc1-c1cc(Nc2ccc(NS(=O)(=O)c3ccc(C)cc3)cc2)ncn1', 113);
